tgt: UniProt:P08164
Sequence (P08164 whole entry): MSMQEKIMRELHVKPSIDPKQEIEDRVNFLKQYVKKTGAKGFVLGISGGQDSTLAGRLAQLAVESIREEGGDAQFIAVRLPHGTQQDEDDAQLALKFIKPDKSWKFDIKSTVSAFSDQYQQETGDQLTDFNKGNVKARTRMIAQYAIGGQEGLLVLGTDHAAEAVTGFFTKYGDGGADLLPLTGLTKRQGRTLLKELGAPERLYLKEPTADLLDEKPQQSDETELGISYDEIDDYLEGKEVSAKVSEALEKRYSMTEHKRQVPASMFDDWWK
protocol-notes: NAD synthetase coupled enzyme assay
Format: biochemical
condition-parameters: NAD synthetase 2.0 μg/mL; 0.1 mM NaAD; 0.2 mM ATP; pH 8.5
This section presents compounds with their documented IC50 values.
value-kind: IC50

• CC(=O)Oc1ccc(C(=O)Oc2ccc(OCCCCCCCCNC(=O)C(Cc3ccccc3)[N+](C)(C)C)cc2)cc1 (stereo not drawn) = 44 µM
• C[N+](C)(C)c1ccc(CC(=O)NCCCCCCCCOc2ccc(OC(=O)c3cc(Cl)cc(Cl)c3Cl)cc2)cc1 = 23.9 µM
• C[n+]1cccc(C(=O)NCCCCCCCCOc2ccc(OC(=O)c3cc(Cl)ccc3Cl)cc2)c1 = 18.4 µM
• C[N+](C)(C1CCOCC1)[C@@H](Cc1ccccc1)C(=O)OCCCCCCCCOc1ccc(OCc2ccccc2)cc1 = 46.6 µM
• C[N+](C)(C)C(Cc1ccccc1)C(=O)OCCCCCCCCOc1ccc(OCc2ccccc2Cl)cc1 (stereo not drawn) = 14.2 µM
• C[N+](C)(C)c1ccc(CC(=O)NCCCCCCCCOc2ccc(OC(=O)c3c(Cl)cccc3Cl)cc2)cc1 = 35.1 µM
• C[N+](C)(C)c1ccc(CC(=O)NCCCCCCCCOc2ccc(OC(=O)c3ccccc3Cl)cc2)cc1 = 34.2 µM
• C[N+](C)(C)C(Cc1ccccc1)C(=O)NCCCCCCCCOc1ccc(OC(=O)c2c(Cl)cc(Cl)cc2Cl)cc1 (stereo not drawn) = 38.5 µM
• C[N+](C)(C)c1ccc(CC(=O)NCCCCCCCCOc2ccc(OC(=O)c3cccc(Cl)c3Cl)cc2)cc1 = 18.5 µM
• C[N+](C)(C)c1ccc(CC(=O)OCCCCCCCCn2ccc3cccc(OCc4ccccc4)c32)cc1 = 23 µM
• C[N+](C)(C)C(Cc1c[nH]c2ccccc12)C(=O)OCCCCCCCn1ccc2cc(OCc3ccccc3)ccc21 (stereo not drawn) = 6.6 µM
• C[N+](C)(C)C(Cc1ccccc1)C(=O)NCCCCCCCCOc1ccc(OC(=O)c2cc(F)ccc2F)cc1 (stereo not drawn) = 23.3 µM
• C[N+]1([C@@H](Cc2ccccc2)C(=O)OCCCCCCCCOc2ccc(OCc3ccccc3)cc2)CCCCC1 = 20.3 µM
• C[n+]1cccc(C(=O)NCCCCCCCCOc2ccc3c(c2)C(=O)CC(c2ccccc2)O3)c1 (stereo not drawn) = 30.7 µM
• CSc1ccc(C(=O)Oc2ccc(OCCCCCCCCOC(=O)C(Cc3ccccc3)[N+](C)(C)C)cc2)cc1 (stereo not drawn) = 15.8 µM

====

# IC50 values compiled below
tgt: UniProt P08164
protocol-notes: NAD synthetase coupled enzyme assay
Assay type: biochemical
condition-parameters: NAD synthetase 2.0 μg/mL; 0.1 mM NaAD; 0.2 mM ATP; pH 8.5
value-kind: IC50 (µM)

* C[N+](C)(C)c1ccc(CC(=O)NCCCCCCCCOc2ccc(OCc3cccc(Cl)c3)cc2)cc1 | 34.8
* N=C(N)N[C@H](COCCCCCCCCOc1ccc(OCc2ccccc2)cc1)Cc1ccccc1 | 10.1
* C[N+](C)(C)C(Cc1ccccc1)C(=O)OCCCCCCCCOc1ccc2c(c1)C(=O)CC(c1ccccc1)O2 (mixture of isomers) | 16.9
* C[N+](C)(C)[C@@H](Cc1ccccc1)C(=O)NCCCCCCCCOc1ccc2c(c1)C(=O)CC(c1ccccc1)O2.[I-] (stereo partly shown) | 31.7
